Each recorded value in this set is attributed to patent US20230416363A1.

assay-system: T1, human PD-1 expressed on cells (human, UniProt Q15116 25-288)
T1 construct: whole, on cells
T1 sequence (Q15116 25-288): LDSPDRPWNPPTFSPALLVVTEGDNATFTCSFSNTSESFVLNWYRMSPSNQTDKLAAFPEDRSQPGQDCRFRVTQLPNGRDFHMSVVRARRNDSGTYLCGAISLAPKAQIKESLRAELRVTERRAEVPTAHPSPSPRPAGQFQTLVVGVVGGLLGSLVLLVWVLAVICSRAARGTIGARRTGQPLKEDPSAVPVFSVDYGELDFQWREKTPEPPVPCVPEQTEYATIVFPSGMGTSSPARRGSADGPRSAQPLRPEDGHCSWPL
assay-method-text: flow cytometry, hPD1-293 cells
We begin with a simple list: items and their reported MFI at 5 nM.
outcome-measure: MFI at 5 nM (MFI)

binder	observed-result
33C4 (antibody, V domains shown, also called 780_39) VH: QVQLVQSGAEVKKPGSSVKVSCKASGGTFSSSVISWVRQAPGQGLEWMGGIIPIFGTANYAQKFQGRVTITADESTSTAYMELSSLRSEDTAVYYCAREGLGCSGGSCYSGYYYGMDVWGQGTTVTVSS VL: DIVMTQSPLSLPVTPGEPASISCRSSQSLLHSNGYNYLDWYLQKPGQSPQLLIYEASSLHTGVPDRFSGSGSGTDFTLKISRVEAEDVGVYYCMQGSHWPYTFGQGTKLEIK	48.2
38B2 (antibody, V domains shown, 24H9 derivative, IgG; also called 780_54; hPD1 Ab (38B2)) VH: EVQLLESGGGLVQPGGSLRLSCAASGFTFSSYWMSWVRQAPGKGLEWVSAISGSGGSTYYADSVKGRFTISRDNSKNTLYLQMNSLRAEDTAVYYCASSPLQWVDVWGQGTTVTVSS VL: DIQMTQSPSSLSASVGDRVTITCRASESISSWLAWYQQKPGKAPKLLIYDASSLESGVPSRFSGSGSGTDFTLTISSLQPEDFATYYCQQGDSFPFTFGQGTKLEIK	118
24H9 (antibody, human IgG1, V domains shown) VH: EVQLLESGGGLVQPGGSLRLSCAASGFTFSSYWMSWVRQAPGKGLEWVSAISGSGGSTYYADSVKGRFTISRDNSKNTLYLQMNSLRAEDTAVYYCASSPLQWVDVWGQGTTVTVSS VL: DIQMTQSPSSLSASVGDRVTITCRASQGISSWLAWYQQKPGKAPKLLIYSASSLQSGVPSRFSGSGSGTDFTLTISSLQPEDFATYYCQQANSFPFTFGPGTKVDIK	42.8
